- assayed_target: protein-protein interaction between Kras and SOS1 (biotin-tagged human Kras loaded with GDP, His-tagged human SOS1) (Homo sapiens (Human), UniProt P01116, G12D)
- test_protocol: Protein-protein interaction inhibition between Kras and SOS1 (KrasG12D-SOS PPI) using AlphaScreen
- Type: biochemical
- measurement_conditions: AlphaScreen; biotin-tagged human Kras loaded with GDP, His-tagged human SOS1; read-out: KRAS G12D-SOS PPI IC50
pIC50: −log10 of the molar value. Numbered stars: 1 amine (or outer) side, 2 acyl side, 3 side chain; on linkers, the order of the positions; unused ones are H or OH. Bridge positions count the residues as written; N and C are the ends. Square brackets hold non-standard residues; d marks the D form. Peptide text beside a SMILES is read from it. * marks the point of attachment. hPhe(3-Cl-4-CF3) = N[C@@H](CCc1ccc(C(F)(F)F)c(Cl)c1)C(=O)O; hPhe(3-F,4-CF3) = N[C@@H](CCc1ccc(C(F)(F)F)c(F)c1)C(=O)O; NMePhe(4-Me) = CN[C@@H](Cc1ccc(C)cc1)C(=O)O; NMedβ3hAla = C[C@H](CC(=O)[*:2])N(C)[*:1]; NMeGly(cPent) = CN[C@H](C(=O)O)C1CCCC1; X26 = CC(C)=CC[C@H](N[*:1])C(=O)[*:2]; NMeCha = CN[C@@H](CC1CCCCC1)C(=O)O; X76 = C=CC[C@H](CC(=O)[*:2])N[*:1]; cisHyp = O=C(O)[C@@H]1C[C@H](O)CN1; NMehLeu = CN[C@@H](CCC(C)C)C(=O)O; NMeChg = CN[C@H](C(=O)O)C1CCCCC1; NMeI = CC[C@H](C)[C@H](NC)C(=O)O; X17 = FC1(F)CN(*)CC(F)(F)C1(F)F; NMeD = CN[C@@H](CC(=O)O)C(=O)O; NMeL = CN[C@@H](CC(C)C)C(=O)O; NMeNva = CCC[C@H](NC)C(=O)O; NMeV = CN[C@H](C(=O)O)C(C)C; d(β3hA) = C[C@@H](N)CC(=O)O; NMeC = CN[C@@H](CS)C(=O)O; Morpholide = C1CN(*)CCO1; NMeA = CN[C@@H](C)C(=O)O; NMeAib = CNC(C)(C)C(=O)O; Piperidide = C1CCN(*)CC1; Ac5c = NC1(C(=O)O)CCCC1; Aze = O=C(O)[C@@H]1CCN1; Sar = CNCC(=O)O
List of pIC50 values.
readout: pIC50

INSERT INTO assay_data (compound, value_reported) VALUES
  ('CC[C@H](C)[C@@H]1NC(=O)[C@H]([C@@H](C)CC)N(C)C(=O)C[C@@H](C)N(C)C(=O)[C@H](C(C)C)N(C)C(=O)C(C)(C)N(C)C(=O)[C@@H]2CCCN2C(=O)[C@H](CCc2ccc(C(F)(F)F)c(Cl)c2)NC(=O)CN(C)C(=O)[C@H](CC2CCCCC2)N(C)C(=O)[C@@H]2CCN2C(=O)[C@H](C)N(C)C1=O [Compound 2159] (cyclo([Aze][NMeCha][Sar][hPhe(3-Cl-4-CF3)]P[NMeAib][NMeV][NMedβ3hAla][NMeI]I[NMeA]))', 8.46),
  ('CCC[C@H]1C(=O)N2CC[C@H]2C(=O)N(C)[C@@H](CC2CCCCC2)C(=O)N(C)CC(=O)N[C@@H](CCc2ccc(C(F)(F)F)c(Cl)c2)C(=O)N2CCC[C@H]2C(=O)NC2(CCCC2)C(=O)N(C)[C@@H](C(C)C)C(=O)N(C)[C@H](C(=O)N2CCCCC2)CC(=O)N(C)[C@@H](CC(C)C)C(=O)N[C@@H]([C@@H](C)CC)C(=O)N1C [Compound 1601] ([NMeL]I[NMeNva][Aze][NMeCha][Sar][hPhe(3-Cl-4-CF3)]P[Ac5c][NMeV][NMeD]-Piperidide; lactam N-11)', 7.66),
  ('CC[C@H](C)[C@@H]1NC(=O)[C@H](CC(C)C)N(C)C(=O)C[C@@H](C(=O)N2CC(F)(F)C(F)(F)C(F)(F)C2)N(C)C(=O)[C@H](C2CCCCC2)N(C)C(=O)C2(CCCC2)NC(=O)[C@@H]2CCCN2C(=O)[C@H](CCc2ccc(C(F)(F)F)c(Cl)c2)NC(=O)CN(C)C(=O)[C@H](CC2CCCCC2)N(C)C(=O)CN(C)C(=O)CN(C)C1=O [Compound 1229] ([NMeL]I[Sar][Sar][NMeCha][Sar][hPhe(3-Cl-4-CF3)]P[Ac5c][NMeChg][NMeD]-X17; lactam N-11)', 7.34),
  ('CC[C@H](C)[C@@H]1NC(=O)[C@H](CC(C)C)N(C)C(=O)CSC[C@@H](C(=O)N(C)C)N(C)C(=O)[C@H](C2CCCC2)N(C)C(=O)C2(CCCC2)NC(=O)[C@@H]2CCCN2C(=O)[C@H](CCc2ccc(C(F)(F)F)c(Cl)c2)NC(=O)CN(C)C(=O)[C@H](Cc2ccc(C)cc2)N(C)C(=O)[C@@H]2CCN2C(=O)[C@H](C)N(C)C1=O [Compound 2177] ({CH2CO}-[NMeL]I[NMeA][Aze][NMePhe(4-Me)][Sar][hPhe(3-Cl-4-CF3)]P[Ac5c][NMeGly(cPent)][NMeC]-NMe2; thioether N-11)', 6.60),
  ('CC(C)=CC[C@@H]1NC(=O)[C@H](CC(C)C)N(C)C(=O)C[C@@H](C(=O)N2CCCCC2)N(C)C(=O)[C@H](C(C)C)N(C)C(=O)C2(CCCC2)NC(=O)[C@@H]2CCCN2C(=O)[C@H](CCc2ccc(C(F)(F)F)c(Cl)c2)NC(=O)CN(C)C(=O)[C@H](CC2CCCCC2)N(C)C(=O)[C@@H]2CCN2C(=O)[C@H](C)N(C)C1=O [Compound 729] ([NMeL][X26][NMeA][Aze][NMeCha][Sar][hPhe(3-Cl-4-CF3)]P[Ac5c][NMeV][NMeD]-Piperidide; lactam N-11)', 7.37),
  ('CC[C@H](C)[C@@H]1NC(=O)[C@H](CC(C)C)N(C)C(=O)C[C@@H](C)NC(=O)[C@H](CC(C)C)N(C)C(=O)C2(CCCC2)NC(=O)[C@@H]2C[C@H](O)CN2C(=O)[C@H](CCc2ccc(C(F)(F)F)c(F)c2)NC(=O)CN(C)C(=O)[C@H](CC2CCCCC2)N(C)C(=O)CN(C)C(=O)CN(C)C1=O [Compound 1529] (cyclo([Ac5c][NMeL][d(β3hA)][NMeL]I[Sar][Sar][NMeCha][Sar][hPhe(3-F,4-CF3)][cisHyp]))', 7.96),
  ('C=CC[C@@H]1CC(=O)N(C)[C@@H](CC(C)C)C(=O)N[C@@H]([C@@H](C)CC)C(=O)N(C)[C@@H](C)C(=O)N2CC[C@H]2C(=O)N(C)[C@@H](Cc2ccc(C)cc2)C(=O)N(C)CC(=O)N[C@@H](CCc2ccc(C(F)(F)F)c(Cl)c2)C(=O)N2CCC[C@H]2C(=O)NC2(CCCC2)C(=O)N(C)[C@@H]([C@@H](C)CC)C(=O)N1 [Compound 1883] (cyclo([Ac5c][NMeI][X76][NMeL]I[NMeA][Aze][NMePhe(4-Me)][Sar][hPhe(3-Cl-4-CF3)]P))', 7.19),
  ('CC[C@H](C)[C@@H]1NC(=O)[C@H](CCC(C)C)N(C)C(=O)C[C@@H](C(=O)N2CCOCC2)N(C)C(=O)[C@H](C2CCCC2)N(C)C(=O)C2(CCCC2)NC(=O)[C@@H]2CCCN2C(=O)[C@H](CCc2ccc(C(F)(F)F)c(Cl)c2)NC(=O)CN(C)C(=O)[C@H](C2CCCC2)N(C)C(=O)[C@@H]2CCN2C(=O)[C@H](C)NC1=O [Compound 1223] ([NMehLeu]IA[Aze][NMeGly(cPent)][Sar][hPhe(3-Cl-4-CF3)]P[Ac5c][NMeGly(cPent)][NMeD]-Morpholide; lactam N-11)', 8.92),
  ('CC[C@H](C)[C@@H]1NC(=O)[C@H](CC(C)C)N(C)C(=O)C[C@@H](C)NC(=O)[C@H](C(C)C)N(C)C(=O)C2(CCCC2)NC(=O)[C@@H]2CCCN2C(=O)[C@H](CCc2ccc(C(F)(F)F)c(Cl)c2)NC(=O)CN(C)C(=O)[C@H](CC2CCCCC2)N(C)C(=O)[C@@H]2CCN2C(=O)[C@H](C)N(C)C1=O [Compound 488] (cyclo([Ac5c][NMeV][d(β3hA)][NMeL]I[NMeA][Aze][NMeCha][Sar][hPhe(3-Cl-4-CF3)]P))', 7.54);

---

- assayed_target: protein-protein interaction between Kras and SOS1 (biotin-tagged human Kras loaded with GDP, His-tagged human SOS1) (Homo sapiens (Human), UniProt P01116, G12D)
- test_protocol: Protein-protein interaction inhibition between Kras and SOS1 (KrasG12D-SOS PPI) using AlphaScreen;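 further: kras produced in E. coli, Ni-coupled donor beads and streptavidin acceptor beads, excitation 680 nm with emission detected at 520–620 nm via singlet oxygen transfer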
- Assay type: biochemical
- measurement_conditions: AlphaScreen; biotin-tagged human Kras loaded with GDP, His-tagged human SOS1; read-out: KRAS G12D-SOS PPI IC50
pIC50: −log10 of the molar value. Numbered stars: 1 amine (or outer) side, 2 acyl side, 3 side chain; on linkers, the order of the positions; unused ones are H or OH. Bridge positions count the residues as written; N and C are the ends. Square brackets hold non-standard residues; d marks the D form. Peptide text beside a SMILES is read from it. * marks the point of attachment. hPhe(3-Cl-4-CF3) = N[C@@H](CCc1ccc(C(F)(F)F)c(Cl)c1)C(=O)O; hPhe(3-F,4-CF3) = N[C@@H](CCc1ccc(C(F)(F)F)c(F)c1)C(=O)O; X98 = O=C([C@H](CCOc1ccc(Cl)c(Cl)c1)N[*:1])[*:2]; 3Oxa8azabicyclo(3.2.1)octane = C1CC2COCC1N2*; NMePhe(4-Me) = CN[C@@H](Cc1ccc(C)cc1)C(=O)O; NMeGly(cPent) = CN[C@H](C(=O)O)C1CCCC1; NMeCha = CN[C@@H](CC1CCCCC1)C(=O)O; NMeChg = CN[C@H](C(=O)O)C1CCCCC1; NMeI = CC[C@H](C)[C@H](NC)C(=O)O; NMeE = CN[C@@H](CCC(=O)O)C(=O)O; NMeD = CN[C@@H](CC(=O)O)C(=O)O; NMeL = CN[C@@H](CC(C)C)C(=O)O; NMeV = CN[C@H](C(=O)O)C(C)C; d(β3hA) = C[C@@H](N)CC(=O)O; NMeS = CN[C@@H](CO)C(=O)O; NMeA = CN[C@@H](C)C(=O)O; Piperidide = C1CCN(*)CC1; Ac5c = NC1(C(=O)O)CCCC1; Aze = O=C(O)[C@@H]1CCN1; Sar = CNCC(=O)O; Propyl = CCC*
The label depends only on pIC50: YES if it is at least 8, NO if it is smaller.

INSERT INTO measurements (compound, class_assignment) VALUES
  ('CC[C@H](C)[C@@H]1NC(=O)[C@H](CC(C)C)N(C)C(=O)C[C@@H](C(=O)N(C)C)N(C)C(=O)[C@H]([C@@H](C)CC)N(C)C(=O)[C@H](C)NC(=O)[C@@H]2CCCN2C(=O)[C@H](CCc2ccc(C(F)(F)F)c(Cl)c2)NC(=O)CN(C)C(=O)[C@H](Cc2ccc(C)cc2)N(C)C(=O)[C@@H]2CCN2C(=O)[C@H](C)N(C)C1=O [Compound 829] ([NMeL]I[NMeA][Aze][NMePhe(4-Me)][Sar][hPhe(3-Cl-4-CF3)]PA[NMeI][NMeD]-NMe2; lactam N-11)', 'YES'),
  ('CC[C@H](C)[C@@H]1NC(=O)[C@H](CC(C)C)N(C)C(=O)C[C@@H](C)NC(=O)[C@H](C(C)C)N(C)C(=O)C2(CCCC2)NC(=O)[C@@H]2CCCN2C(=O)[C@H](CCc2ccc(C(F)(F)F)c(Cl)c2)NC(=O)CN(C)C(=O)[C@H](CC2CCCCC2)N(C)C(=O)[C@@H]2CCN2C(=O)[C@H](CCC(=O)NC)N(C)C1=O [Compound 810] (cyclo([Ac5c][NMeV][d(β3hA)][NMeL]I[NMeE](NHMe)[Aze][NMeCha][Sar][hPhe(3-Cl-4-CF3)]P))', 'NO'),
  ('CC[C@H](C)[C@@H]1NC(=O)[C@H](C)N(C)C(=O)C[C@@H](C(=O)N2CCCCC2)N(C)C(=O)[C@H](C2CCCCC2)N(C)C(=O)C2(CCCC2)NC(=O)[C@@H]2CCCN2C(=O)[C@H](CCOc2ccc(Cl)c(Cl)c2)NC(=O)CN(C)C(=O)[C@H](CC2CCCCC2)N(C)C(=O)CN(C)C(=O)CN(C)C1=O [Compound 2039] ([NMeA]I[Sar][Sar][NMeCha][Sar][X98]P[Ac5c][NMeChg][NMeD]-Piperidide; lactam N-11)', 'NO'),
  ('CCCOC[C@H]1C(=O)N(C)CC(=O)N[C@@H](CCc2ccc(C(F)(F)F)c(F)c2)C(=O)N2CCC[C@H]2C(=O)NC2(CCCC2)C(=O)N(C)[C@@H](C2CCCC2)C(=O)N(C)[C@H](C(=O)N2C3CCC2COC3)CC(=O)N(C)[C@@H](CC(C)C)C(=O)N[C@@H]([C@@H](C)CC)C(=O)N(C)[C@@H](C)C(=O)N2CC[C@H]2C(=O)N1C [Compound 1030] ([NMeL]I[NMeA][Aze][NMeS](Propyl)[Sar][hPhe(3-F,4-CF3)]P[Ac5c][NMeGly(cPent)][NMeD]-{3Oxa8azabicyclo(3.2.1)octane}; lactam N-11)', 'YES');
